// values below are reported Bliss interaction score
- System: B. subtilis 168
- protocol: Bliss interaction score (quartile over a dose matrix) (fitness difference); higher = more antagonism (negative = synergy);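 note: first quartile when negative (synergy) and third quartile when positive (antagonism)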
Would you mind answering with just the numeric figure?

Study these solved cases before continuing.
Cc1ncc([N+](=O)[O-])n1CCO [Metronidazole] + C/C(=C\C(=O)OCCCCCCCCC(=O)O)C[C@@H]1OC[C@H](C[C@@H]2O[C@H]2[C@@H](C)[C@H](C)O)[C@@H](O)[C@H]1O [Pseudomonic acid]
-0.0197
CO/N=C(\C(=O)N[C@@H]1C(=O)N2C(C(=O)O)=C(COC(N)=O)CS[C@H]12)c1ccco1 [Cefuroxime] + CN(C)C(=O)C(CCN1CCC(O)(c2ccc(Cl)cc2)CC1)(c1ccccc1)c1ccccc1 [Loperamide]
-0.12
COc1cccc2c1C(=O)c1c(O)c3c(c(O)c1C2=O)C[C@@](O)(C(=O)CO)C[C@@H]3O[C@H]1C[C@H](N)[C@H](O)[C@H](C)O1 [Doxorubicin] + Clc1ccc(COC(Cn2ccnc2)c2ccc(Cl)cc2Cl)c(Cl)c1 [Miconazole]
0.0755

Q: Endpoint output: Bliss interaction score of N#CC(C#N)=NNc1cccc(Cl)c1 [CCCP] + CC[C@H]1OC(=O)[C@H](C)C(=O)[C@H](C)[C@@H](O[C@@H]2O[C@H](C)C[C@H](N(C)C)[C@H]2O)[C@](C)(OC)C[C@@H](C)C(=O)[C@H](C)[C@H]2N(CCCCn3cnc(-c4cccnc4)c3)C(=O)O[C@]12C [Telithromycin] . Value?
A: -0.0441

* * *

// values below are reported Bliss interaction score
- Test system: S. aureus DSM 20231
- protocol: Bliss interaction score (quartile over a dose matrix) (fitness difference); higher = more antagonism (negative = synergy)
Would you mind answering with just the numeric figure?

Study these solved cases before continuing.
CC(=O)Oc1ccccc1C(=O)O [Acetylsalicylicacid] + CN(C)[C@@H]1C(O)=C(C(N)=O)C(=O)[C@@]2(O)C(O)=C3C(=O)c4c(O)ccc(Cl)c4[C@@](C)(O)[C@H]3C[C@@H]12 [Clortetracycline]
-0.101
CO/N=C(\C(=O)N[C@@H]1C(=O)N2C(C(=O)O)=C(COC(C)=O)CS[C@H]12)c1csc(N)n1 [Cefotaxime] + CN(N=O)C(=O)N[C@@H](C=O)[C@@H](O)[C@H](O)[C@H](O)CO [Streptozotocin]
-0.0448
C[C@@H]1O[C@@H]1P(=O)(O)O [Fosfomycin] + CC1=C\[C@@H](O)CC(=O)Cc2nc(co2)C(=O)N2CCC=C2C(=O)O[C@H](C(C)C)[C@H](C)/C=C/C(=O)NC\C=C\1 [Virginiamycin M1]
-0.0507
Cc1ncc([N+](=O)[O-])n1CCO [Metronidazole] + CC1=C\[C@@H](O)CC(=O)Cc2nc(co2)C(=O)N2CCC=C2C(=O)O[C@H](C(C)C)[C@H](C)/C=C/C(=O)NC\C=C\1 [Virginiamycin M1]
0.0516
C[C@@H]1O[C@@H]1P(=O)(O)O [Fosfomycin] + CN[C@@H]1[C@H](O[C@H]2[C@H](O[C@H]3[C@H](O)[C@@H](O)[C@H](N=C(N)N)[C@@H](O)[C@@H]3N=C(N)N)O[C@@H](C)[C@]2(O)C=O)O[C@@H](CO)[C@H](O)[C@H]1O [Streptomycin]
-0.14

Q: Endpoint output: Bliss interaction score of CO/N=C(\C(=O)N[C@@H]1C(=O)N2C(C(=O)O)=C(COC(C)=O)CS[C@H]12)c1csc(N)n1 [Cefotaxime] + CC[C@H]1OC(=O)[C@H](C)C(=O)[C@H](C)[C@@H](O[C@@H]2O[C@H](C)C[C@H](N(C)C)[C@H]2O)[C@](C)(OC)C[C@@H](C)C(=O)[C@H](C)[C@H]2N(CCCCn3cnc(-c4cccnc4)c3)C(=O)O[C@]12C [Telithromycin] . Value?
A: 0.0754

Q: Endpoint output: Bliss interaction score of CN(C)[C@@H]1C(O)=C(C(N)=O)C(=O)[C@@]2(O)C(O)=C3C(=O)c4c(O)ccc(Cl)c4[C@@](C)(O)[C@H]3C[C@@H]12 [Clortetracycline] + C[C@]12CC[C@@H]3c4ccc(O)cc4CC[C@H]3[C@@H]1CC[C@@H]2O [Estradiol] . Value?
A: 0.237

Q: Endpoint output: Bliss interaction score of COc1ccc(C[C@H](N)C(=O)N[C@H]2[C@@H](O)[C@H](n3cnc4c(N(C)C)ncnc43)O[C@@H]2CO)cc1 [Puromycin] + CN(N=O)C(=O)N[C@@H](C=O)[C@@H](O)[C@H](O)[C@H](O)CO [Streptozotocin] . Value?
A: 0.0762

Q: Endpoint output: Bliss interaction score of O=C(O)c1cn(C2CC2)c2cc(N3CCNCC3)c(F)cc2c1=O [Ciprofloxacin] + C[C@H]1COc2c(N3CCN(C)CC3)c(F)cc3c(=O)c(C(=O)O)cn1c23 [Levofloxacin] . Value?
A: -0.147

Attribution: the supplement of paper PMC10627819
